- SUBJECT_OF_TEST: Cannabinoid receptor 2 (Homo sapiens, UniProt P34972)
- Sequence (P34972 whole entry): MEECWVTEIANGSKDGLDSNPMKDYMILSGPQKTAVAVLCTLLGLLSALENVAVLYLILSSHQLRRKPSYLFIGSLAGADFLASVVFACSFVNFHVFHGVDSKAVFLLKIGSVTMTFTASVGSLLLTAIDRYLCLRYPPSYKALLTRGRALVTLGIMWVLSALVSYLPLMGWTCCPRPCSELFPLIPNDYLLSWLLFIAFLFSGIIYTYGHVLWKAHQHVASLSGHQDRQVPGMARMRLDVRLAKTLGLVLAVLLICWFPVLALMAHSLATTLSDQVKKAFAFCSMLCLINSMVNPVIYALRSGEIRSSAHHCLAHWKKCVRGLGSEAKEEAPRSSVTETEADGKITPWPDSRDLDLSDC
READOUT: Ki

Problem: State its Ki for this compound: `CCCCCn1cc(C(=O)N[C@@H](C)c2ccc3ccccc3c2)c(=O)c2ccccc21`
Result: > 5 µM

Problem: Indicate its recorded Ki; the compound in question is `CCCCCn1cc(C(=O)NCc2ccccc2)c(=O)c2ccccc21`
Result: > 1 µM

Problem: Consider the compound `CCCCCn1cc(C(=O)N[C@@H](C)c2cccc3ccccc23)c(=O)c2ccccc21` and give its recorded Ki.
Result: > 1 µM

Problem: Give Ki for CCCCCn1cc(C(=O)NC(C)c2ccc3ccccc3c2)c(=O)c2ccccc21 (racemic)
Result: > 1 µM

Problem: Consider the compound `CCCCCn1cc(C(=O)Nc2ccc(Cl)c(Cl)c2)c(=O)c2ccccc21` and give its recorded Ki.
Result: > 1 µM

Problem: # return recorded Ki for entry `CCCCCn1cc(C(=O)NCCCc2ccccc2)c(=O)c2ccccc21`
Result: > 1 µM

----------
Would you kindly list Activity for each of these molecules?
- SUBJECT_OF_TEST: UniProt:P21554
- TEST: Displacement of [3H]SR-141716A from human CB1 receptor at 10 uM
Dear colleague, please return just the value in %, with no unit written.

Problem: Read the entry `CCCCn1cc(C(=O)Nc2cccc3ccccc23)c(=O)c2ccccc21` and write its reported Activity.
Result: 45.3

Problem: For the molecule `CCCCCn1cc(C(=O)NCCc2ccccc2)c(=O)c2ccccc21` , give its measured Activity value.
Result: 64.8

Problem: Find the measured Activity of `CCCCn1cc(C(=O)NCc2ccccc2)c(=O)c2ccccc21` and report it.
Result: 33.6

Problem: Quickly give me recorded Activity for CCCCCn1cc(C(=O)NC2C3CC4CC(C3)CC2C4)c(=O)c2ccccc21 (centres undefined)
Result: 37.8

Problem: Identify Activity associated with the molecule `CCCCCn1cc(C(=O)NC23CC4CC(C)(CC(C)(C4)C2)C3)c(=O)c2ccccc21`
Result: 54.6

----------
- SUBJECT_OF_TEST: Cannabinoid receptor 1 (Homo sapiens, UniProt P21554)
- Sequence (P21554 whole entry): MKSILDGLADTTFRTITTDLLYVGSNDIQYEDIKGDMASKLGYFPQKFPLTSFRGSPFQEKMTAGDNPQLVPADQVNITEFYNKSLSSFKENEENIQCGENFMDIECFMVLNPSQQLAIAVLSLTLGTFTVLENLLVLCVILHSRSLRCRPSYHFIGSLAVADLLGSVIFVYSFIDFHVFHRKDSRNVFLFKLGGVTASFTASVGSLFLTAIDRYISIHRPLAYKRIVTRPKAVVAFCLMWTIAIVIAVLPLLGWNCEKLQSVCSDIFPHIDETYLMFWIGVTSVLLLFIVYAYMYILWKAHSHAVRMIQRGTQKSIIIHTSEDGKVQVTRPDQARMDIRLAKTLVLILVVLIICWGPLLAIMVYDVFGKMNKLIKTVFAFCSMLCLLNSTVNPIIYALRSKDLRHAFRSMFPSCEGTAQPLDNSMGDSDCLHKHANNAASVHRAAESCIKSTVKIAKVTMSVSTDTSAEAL
- TEST: Displacement of [3H]SR-141716A from human CB1 receptor at 10 uM
For each entry below, report its Activity value.

Problem: Using the record for CCCCCn1cc(C(=O)NC(C)c2ccc3ccccc3c2)c(=O)c2ccccc21 (racemic) , state its measured Activity.
Result: < 10%

Problem: For the compound `CCCCCn1cc(C(=O)N2CCOCC2)c(=O)c2ccccc21` , report Activity.
Result: < 10%

Problem: Could you please provide reported Activity for `CCCCCn1cc(C(=O)NCc2ccc(OC)cc2)c(=O)c2ccccc21` ? Thanks!
Result: < 10%

Problem: Fill in reported Activity for this entry: `CCCCCn1cc(C(=O)Nc2ccc(OC)cc2)c(=O)c2ccccc21`
Result: < 20%

Values from ChEMBL document CHEMBL1148594
